Assayed system: human ether-à-go-go-related gene (hERG) potassium channel (human)
Sequence (Q12809 whole entry, looked up): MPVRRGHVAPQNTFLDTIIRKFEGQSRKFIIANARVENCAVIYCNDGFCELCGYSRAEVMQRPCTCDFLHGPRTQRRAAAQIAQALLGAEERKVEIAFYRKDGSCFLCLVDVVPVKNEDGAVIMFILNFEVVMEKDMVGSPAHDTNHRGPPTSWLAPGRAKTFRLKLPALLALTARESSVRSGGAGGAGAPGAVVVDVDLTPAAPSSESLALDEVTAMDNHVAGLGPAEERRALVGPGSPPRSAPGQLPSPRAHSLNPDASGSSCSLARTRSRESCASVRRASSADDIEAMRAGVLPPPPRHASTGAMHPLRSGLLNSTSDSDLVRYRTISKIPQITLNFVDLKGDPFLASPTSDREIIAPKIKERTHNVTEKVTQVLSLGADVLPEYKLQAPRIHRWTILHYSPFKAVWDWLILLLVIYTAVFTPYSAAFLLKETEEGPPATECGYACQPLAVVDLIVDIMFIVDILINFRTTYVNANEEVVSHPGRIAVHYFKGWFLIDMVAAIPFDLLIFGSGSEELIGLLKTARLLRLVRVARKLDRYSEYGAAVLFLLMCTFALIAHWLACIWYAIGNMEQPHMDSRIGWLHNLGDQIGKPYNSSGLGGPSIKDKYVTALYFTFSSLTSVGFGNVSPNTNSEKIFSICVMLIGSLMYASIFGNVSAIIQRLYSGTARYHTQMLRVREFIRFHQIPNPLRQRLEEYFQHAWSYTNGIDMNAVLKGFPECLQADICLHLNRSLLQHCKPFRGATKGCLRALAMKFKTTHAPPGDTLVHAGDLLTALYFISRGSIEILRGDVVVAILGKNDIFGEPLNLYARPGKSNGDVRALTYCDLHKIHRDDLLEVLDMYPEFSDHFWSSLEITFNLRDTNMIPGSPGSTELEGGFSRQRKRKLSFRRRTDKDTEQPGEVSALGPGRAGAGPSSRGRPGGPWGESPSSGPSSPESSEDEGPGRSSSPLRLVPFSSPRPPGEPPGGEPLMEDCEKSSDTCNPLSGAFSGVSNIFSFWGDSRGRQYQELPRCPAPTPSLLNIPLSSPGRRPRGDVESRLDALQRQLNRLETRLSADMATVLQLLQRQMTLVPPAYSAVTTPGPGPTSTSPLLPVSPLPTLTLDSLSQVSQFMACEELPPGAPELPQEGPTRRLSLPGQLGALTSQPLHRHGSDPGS
Test description: primary screen, population patch clamp on CHO cells stably expressing hERG; higher = less effect of the substance
Text: Briefly, Chinese hamster ovary (CHO) cells stably expressing the hERG channel were dislodged from tissue culture flasks and dispensed into PPC plates. […] Small molecule effects on hERG current density were quantified by […].
Among all 310,000 compounds or so, about 2,200 (0.71%) showed an effect of 50% or more. Effects have a minus sign here. Shown is part of a subset that was picked to be rich in strong results.
Readout label: hERG current change (%, negative = inhibition) at 1uM (%)

- Compound: "CCOC(=O)C1(CCOc2ccccc2)CCN(Cc2ccc(C#CCCO)cc2)CC1"
  Quantitative result: 0.161
- Compound: "CCOC(=O)C1(Cc2cccc(F)c2)CCN(Cc2cn(CC)nc2C)CC1"
  Quantitative result: -6.14
- Compound: "CCOC(=O)C1(CCCc2ccccc2)CCN(CCCn2cccn2)CC1"
  Quantitative result: -84.6
- Compound: "O=C(NC1CCCCC1)c1ccc(NS(=O)(=O)c2cccc3cccnc23)cc1"
  Quantitative result: 12.5
- Compound: "CCCc1c(C)[nH]c2nc3ccccc3n2c1=O"
  Quantitative result: 11.4
- Compound: "CCCn1cc(CN2CCC(Cc3cccc(F)c3)(C(=O)OCC)CC2)c(C)n1"
  Quantitative result: -60.3
- Compound: "COc1ccc(CNC(=O)C2CC(c3cccc([N+](=O)[O-])c3)=NO2)cc1 (stereo not drawn)"
  Quantitative result: 5.46
- Compound: "CN1CCN(C(=O)C2CCC(=O)N(Cc3cccc(C(F)(F)F)c3)C2)CC1 (stereo not drawn)"
  Quantitative result: 6.99
- Compound: "CCOC(=O)C1(CCOc2ccccc2)CCN(Cc2cccc(O)c2)CC1"
  Quantitative result: -28.7
- Compound: "CCOC(=O)C1(Cc2ccccc2)CCCN(CCCn2cccn2)C1 (stereo not drawn)"
  Quantitative result: 3.88
- Compound: "CCOC(=O)C1(Cc2ccc(Cl)cc2)CCN(CCCn2cccn2)CC1"
  Quantitative result: -77
- Compound: "COc1ccc(S(=O)(=O)N2CCOCC2)cc1NC(=O)CCc1cc(OC)c(OC)c(OC)c1"
  Quantitative result: 2.32
- Compound: "CCOC(=O)C1(Cc2ccccc2C(F)(F)F)CCN(C(C)CCn2cccn2)CC1 (stereo not drawn)"
  Quantitative result: -40.8
- Compound: "CCOC(=O)C1(CCOc2ccccc2)CCN(Cc2ccc(OCCO)cc2)CC1"
  Quantitative result: -85.1
- Compound: "CCC(C)NCCCCOc1ccc(Br)cc1.O=C(O)C(=O)O (stereo not drawn)"
  Quantitative result: -0.232
- Compound: "CCOC(=O)C1(CCOc2ccccc2)CCN(Cc2ccc(O)cc2)CC1"
  Quantitative result: -84.8
- Compound: "CCOC(=O)C1(CCCc2ccccc2)CCN(Cc2cnn(C)c2)CC1"
  Quantitative result: -46.4
- Compound: "Cc1nc(COc2ccc(C(=O)NCc3ccccc3CN3CCCCC3)cc2)cs1"
  Quantitative result: -10.6
- Compound: "CCOC(=O)C1(CCOc2ccccc2)CCN(Cc2ccc(C)s2)CC1"
  Quantitative result: -65.4
- Compound: "Brc1ccc(OCCCCN2CCCCC2)cc1"
  Quantitative result: -11.6
- Compound: "CCOC(=O)COc1ccc(CCNC(C)=O)cc1"
  Quantitative result: 17.8

// provenance: paper PMC4336329
